Reference source: ChEMBL document CHEMBL4011621

Protocol: Cytotoxicity against human HeLa Rh cells assessed as decrease in cell viability after 3 days by MTT assay
Type: cell-based

Input Smiles: CCOc1noc2cc(OCCC3CCN(c4ccc(C)nn4)CC3)ccc12
CC50 at 72 h: 721 µM
--
Input Smiles: Cc1cc(CCCOc2c(C)cc(-c3noc(C(F)(F)F)n3)cc2C)on1
CC50 at 72 h: > 10 µM
--
Input Smiles: CNC(=O)c1cc(Oc2ccc3c(C)c(C(=O)OC(C)C)sc3c2)ccn1
CC50 at 72 h: > 3 µM
--
Input Smiles: C#CC[C@@H](C(=O)N[C@H](/C=C/C(=O)OCC)C[C@@H]1CCNC1=O)n1cccc(NC(=O)c2cc(C)on2)c1=O
CC50 at 72 h: > 3 µM
